Cited source for all entries: ChEMBL document CHEMBL1156196

# System: Trypanosoma cruzi
# experiment: Inhibition of Trypanosoma cruzi recombinant trans-sialidase at 1 mM after 10 mins by MUNANA continuous fluorimetric assay
property.label: inhibition

• CO[C@@H]1O[C@H](Cn2cc(-c3ccc(N)cc3)nn2)[C@H](O)[C@H](O)[C@H]1O = 34%
• CC(O)Cc1cn([C@@H]2O[C@H](CO)[C@H](O)[C@H](O)[C@H]2O)nn1 (single isomer, unassigned) = 14%
• CO[C@@H]1O[C@H](Cn2cc(CCc3ccccc3)nn2)[C@H](O)[C@H](O)[C@H]1O = 14%
• OC[C@H]1O[C@@H](n2cc(Cc3ccccc3)nn2)[C@H](O)[C@@H](O)[C@H]1O = 37%
• Cc1ncc(COP(=O)(O)O)c(C=O)c1O = 65%

* * *

# experiment: Cytotoxicity against mouse splenocytes after 24 hrs using propidium iodide staining by FACS analysis
# Type: cell-based
# condition.label: splenocyte
property.label: Activity

* OC[C@H]1O[C@@H](n2cc(CCc3ccccc3)nn2)[C@H](O)[C@@H](O)[C@H]1O | Toxic
* CO[C@@H]1O[C@H](Cn2cc(CN(C)Cc3ccccc3)nn2)[C@H](O)[C@H](O)[C@H]1O | Non-toxic
* OC[C@H]1O[C@@H](n2cc(-c3ccc(Br)cc3)nn2)[C@H](O)[C@@H](O)[C@H]1O | Active
* OC[C@H]1O[C@@H](n2cc(COCC3CO3)nn2)[C@H](O)[C@@H](O)[C@H]1O (mixture of isomers) | Non-toxic
* OC[C@H]1O[C@@H](n2cc(Cc3ccccc3)nn2)[C@H](O)[C@@H](O)[C@H]1O | Active
* OC[C@H]1O[C@@H](n2cc(-c3ccccn3)nn2)[C@H](O)[C@@H](O)[C@H]1O | Non-toxic
* Nc1ccc(-c2cn([C@@H]3O[C@H](CO)[C@H](O)[C@H](O)[C@H]3O)nn2)cc1 | Non-toxic
* CO[C@@H]1O[C@H](Cn2cc(CCCO)nn2)[C@H](O)[C@H](O)[C@H]1O | Non-toxic
* OC[C@H]1O[C@@H](n2cc(-c3cccnc3)nn2)[C@H](O)[C@@H](O)[C@H]1O | Toxic
* CCC(O)c1cn(C[C@H]2O[C@@H](OC)[C@H](O)[C@@H](O)[C@H]2O)nn1 (mixture of isomers) | Non-toxic
* CO[C@@H]1O[C@H](Cn2cc(-c3ccc(C(F)(F)F)cc3)nn2)[C@H](O)[C@H](O)[C@H]1O | Toxic
* Nc1ccccc1-c1cn([C@@H]2O[C@H](CO)[C@H](O)[C@H](O)[C@H]2O)nn1 | Non-toxic
* CO[C@@H]1O[C@H](Cn2cc(-c3ccc(Br)cc3)nn2)[C@H](O)[C@H](O)[C@H]1O | Toxic
* OC[C@H]1O[C@@H](n2cc(-c3ccc(C(F)(F)F)cc3)nn2)[C@H](O)[C@@H](O)[C@H]1O | Toxic

* * *

# Tested on: Trypanosoma cruzi
# experiment: Inhibition of Trypanosoma cruzi recombinant trans-sialidase at 0.5 mM after 10 mins by MUNANA continuous fluorimetric assay
property.label: inhibition

• CO[C@@H]1O[C@H](Cn2cc(-c3ccc(C(F)(F)F)cc3)nn2)[C@H](O)[C@H](O)[C@H]1O = 10%
• CO[C@@H]1O[C@H](Cn2cc(CN3C(=O)c4ccccc4C3=O)nn2)[C@H](O)[C@H](O)[C@H]1O = 11%
• OC[C@H]1O[C@@H](n2cc(-c3ccc(C(F)(F)F)cc3)nn2)[C@H](O)[C@@H](O)[C@H]1O = 9%
• OC[C@H]1O[C@@H](n2cc(-c3cccnc3)nn2)[C@H](O)[C@@H](O)[C@H]1O = 15%
• CO[C@@H]1O[C@H](Cn2cc(-c3ccc(Br)cc3)nn2)[C@H](O)[C@H](O)[C@H]1O = 3%

* * *

Measured inhibition by item
# Test system: Trypanosoma cruzi
# experiment: Inhibition of Trypanosoma cruzi recombinant trans-sialidase at 1 mM after 10 mins by MUNANA continuous fluorimetric assay
property.label: inhibition

- CO[C@@H]1O[C@H](Cn2cc(COCC3CO3)nn2)[C@H](O)[C@H](O)[C@H]1O (mixture of isomers): 25%
- COC(=O)c1cn(C[C@H]2O[C@@H](OC)[C@H](O)[C@@H](O)[C@H]2O)nn1: 30%
- CO[C@@H]1O[C@H](Cn2cc(CN(C)Cc3ccccc3)nn2)[C@H](O)[C@H](O)[C@H]1O: 17%
- O=C(O)CCCc1cn([C@@H]2O[C@H](CO)[C@H](O)[C@H](O)[C@H]2O)nn1: 10%
- CCC(O)c1cn([C@@H]2O[C@H](CO)[C@H](O)[C@H](O)[C@H]2O)nn1 (single isomer, unassigned): 13%
- OC[C@H]1O[C@@H](n2cc(-c3ccccc3Br)nn2)[C@H](O)[C@@H](O)[C@H]1O: 33%
